test: Plasma pharmacokinetics of BMS-962212 after IV infusion; settings: human, in vivo, iv, Vz, range across panels, 2-h IV infusion
measurement.label: Vd

[ask] Given CN1CCN(c2cccc3c2CCN(C(=O)/C=C/c2c(-n4cnnn4)ccc(Cl)c2F)[C@@H]3C(=O)Nc2ccc(C(=O)O)cc2)C(=O)C1 , respond with its Vd.
[reply] 72 to 129 L

###

test: Plasma pharmacokinetics of BMS-962212 after IV infusion; settings: human, in vivo, 1 mg, t 1/2, part B 1 mg h^−1; Non-Japanese ethnicity (n = 4); mean (CV%)
measurement.label: half-life (h)
Give bare numbers, in h.

[ask] Given CN1CCN(c2cccc3c2CCN(C(=O)/C=C/c2c(-n4cnnn4)ccc(Cl)c2F)[C@@H]3C(=O)Nc2ccc(C(=O)O)cc2)C(=O)C1 [BMS‐962212] , respond with its half-life.
[reply] 5.3
